Molecular target: Tryptophan 2,3-dioxygenase (Homo sapiens)
Sequence (P48775 whole entry): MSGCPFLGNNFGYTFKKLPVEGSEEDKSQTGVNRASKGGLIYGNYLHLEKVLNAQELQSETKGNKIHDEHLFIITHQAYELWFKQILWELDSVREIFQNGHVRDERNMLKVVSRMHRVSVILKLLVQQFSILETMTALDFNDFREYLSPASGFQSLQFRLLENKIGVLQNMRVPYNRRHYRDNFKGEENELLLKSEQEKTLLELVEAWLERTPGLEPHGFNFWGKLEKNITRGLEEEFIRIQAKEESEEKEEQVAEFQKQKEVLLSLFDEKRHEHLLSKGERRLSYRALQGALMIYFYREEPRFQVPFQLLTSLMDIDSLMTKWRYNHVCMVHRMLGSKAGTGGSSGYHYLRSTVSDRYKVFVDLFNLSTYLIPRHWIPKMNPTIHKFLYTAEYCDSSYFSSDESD
Experiment: Inhibition of TDO in human HEK293 cells assessed as reduction in kynurenine formation using L-tryptophan as substrate by absorbance based analysis
Type: cell-based
MEASURED ATTRIBUTE: IC50 (nM)

1) CC(=O)OCc1coc2c1C(=O)C(=O)c1c-2ccc2c1CCC(=O)C2(C)C
860

a. CC(=O)O[C@H]1CCc2c(ccc3c2C(=O)C(=O)c2c(C)coc2-3)C1(C)C
b. CC(=O)OCc1coc2c1C(=O)C(=O)c1c-2ccc2c1C=CC(=O)C2(C)C
Q) Choose between a and b : whose measured IC50 value is numerically larger? Selection: enter the item's label.
A) a
(a: 2800 nM, b: 1870 nM)
